system: Escherichia coli DC2; assay: In Vitro Anti-Bacterial Activity Test (MIC, agar dilution); type: cell-based; conditions: Escherichia coli, DC2, 18 h
Structures can show the parent of a compound that is named as a salt.
Quick reference for MIC among some molecules
The figure you give is taken to be in µg/mL; do not add the unit.

Observe how each entry below is paired with its result.
- molecule: "CCOC(=O)CC(=O)c1cn(C2CC2)c2c(F)c(N3CCC(N)C3)c(F)cc2c1=O (stereo not drawn) [Example 21, hydrochloride]"
  MIC / µg/mL: 0.049
- molecule: "CCOC(=O)C(C(=O)OCC)C(=O)c1cn(C2CC2)c2c(Cl)c(N3CC[C@H](NC)C3)c(F)cc2c1=O [Example 56, hydrochloride]"
  MIC / µg/mL: 0.049

Now for the molecule whose MIC we want.
Asked: Specify reported MIC for the molecule shown: Cc1c(N2CCC(N)C2)c(F)cc2c(=O)c(C(=O)C[N+](=O)[O-])cn(C3CC3)c12 (stereo not drawn) [Example 50, hydrochloride]
Given back: 0.049

---

system: Klebsiella aerogenes 1522E; experiment: In Vitro Anti-Bacterial Activity Test (MIC, agar dilution); assay type: cell-based; conditions: Klebsiella aerogenes, 1522E, 18 h, Klebsiella aerogenes 1522E; Muller-Hinton agar, 37° C., 18 hours; read-out: MIC
Structures can show the parent of a compound that is named as a salt.
Quick reference for log10(MIC) among some molecules
In plain terms, each number is the log10 of measured MIC in µg/mL.

- molecule: "CC1CN(c2c(F)cc3c(=O)c(C(=O)C[N+](=O)[O-])cn(C4CC4)c3c2F)CCN1 (stereo not drawn) [Example 7, hydrochloride]"
  measurementName: "log10(MIC)"
  endpointValue: -0.41
- molecule: "CCOC(=O)C(C(=O)OCC)C(=O)c1cn(C2CC2)c2c(Cl)c(N3CC=C(CNC)C3)c(F)cc2c1=O [Example 28, hydrochloride]"
  measurementName: "log10(MIC)"
  endpointValue: -1.89
- molecule: "NC1CCN(c2nc3c(cc2F)c(=O)c(C(=O)C[N+](=O)[O-])cn3-c2ccc(F)cc2F)C1 (stereo not drawn)"
  measurementName: "log10(MIC)"
  endpointValue: -2.15
- molecule: "CS(=O)(=O)CC(=O)c1cn(C2CC2)c2c(Cl)c(N3CCC(N)C3)c(F)cc2c1=O (stereo not drawn) [Example 33, hydrochloride]"
  measurementName: "log10(MIC)"
  endpointValue: -0.41
- molecule: "CCOC(=O)C(C(=O)OCC)C(=O)c1cn(C2CC2)c2c(Cl)c(N3CC4=C(CNC4)C3)c(F)cc2c1=O [Example 36, hydrochloride]"
  measurementName: "log10(MIC)"
  endpointValue: -1.60

Now for the molecule whose log10(MIC) we want.
Asked: Specify reported log10(MIC) for the molecule shown: CCOC(=O)C(C(=O)OCC)C(=O)c1cn(C2CC2)c2c(Cl)c(N3CC[C@H](NC)C3)c(F)cc2c1=O [Example 56, hydrochloride]
Given back: -1.31

---

tested on: Escherichia coli DC2; assay: In Vitro Anti-Bacterial Activity Test (MIC, agar dilution); type: cell-based; conditions: Escherichia coli, DC2, 18 h
Structures can show the parent of a compound that is named as a salt.
Quick reference for MIC among some compounds
The figure you give is taken to be in µg/mL; do not add the unit.

- compound: "COc1c(N2CCC(N)C2)c(F)cc2c(=O)c(C(=O)C[N+](=O)[O-])cn(C3CC3)c12 (stereo not shown) [Example 49, hydrochloride]"
  MIC (µg/mL): 0.098
- compound: "CNCC1=CCN(c2c(F)cc3c(=O)c(C(=O)CS(C)(=O)=O)cn(C4CC4)c3c2Cl)C1 [Example 46, hydrochloride]"
  MIC (µg/mL): 0.098
- compound: "CN[C@@H]1CCN(c2c(F)cc3c(=O)c(C(=O)C[N+](=O)[O-])cn(C4CC4)c3c2OC)C1 [Example 64, hydrochloride]"
  MIC (µg/mL): 0.049
- compound: "CCOC(=O)C(C(=O)OCC)C(=O)c1cn(C2CC2)c2c(Cl)c(N3CC=C(CNC)C3)c(F)cc2c1=O [Example 28, hydrochloride]"
  MIC (µg/mL): 0.049
- compound: "CN[C@H]1CCN(c2c(F)cc3c(=O)c(C(=O)C[N+](=O)[O-])cn(C4CC4)c3c2Cl)C1 [Example 62, hydrochloride]"
  MIC (µg/mL): 0.013
- compound: "CCOC(=O)C(C#N)C(=O)c1cn(C2CC2)c2c(Cl)c(N3CC4=C(CNC4)C3)c(F)cc2c1=O (stereo not shown) [Example 41, hydrochloride]"
  MIC (µg/mL): 1.56
- compound: "CCOC(=O)CC(=O)c1cn(C2CC2)c2c(Cl)c(N3CC[C@H](N)C3)c(F)cc2c1=O [Example 27, hydrochloride]"
  MIC (µg/mL): 0.013
- compound: "CCOC(=O)C(C(=O)OCC)C(=O)c1cn(C2CC2)c2cc(N3CCNCC3)c(F)cc2c1=O [Example 18, hydrochloride]"
  MIC (µg/mL): 0.098
- compound: "CNCC1=CCN(c2c(F)cc3c(=O)c(C(=O)CC#N)cn(C4CC4)c3c2Cl)C1 [Example 43, hydrochloride]"
  MIC (µg/mL): 1.56

Asked: Specify reported MIC for the compound shown: CNC1CCN(c2c(F)cc3c(=O)c(C(=O)C[N+](=O)[O-])cn(C4CC4)c3c2OC)C1 (stereo not shown) [Example 66, hydrochloride]
Given back: 0.195

---

system: Klebsiella oxytoca 1082E; experiment: In Vitro Anti-Bacterial Activity Test (MIC, agar dilution); type: cell-based; conditions: Klebsiella oxytoca 1082E; Muller-Hinton agar, 37° C., 18 hours; read-out: MIC
Where a name gives a salt, the structure may show the parent alone.
measurementName: MIC

Observe how each entry below is paired with its result.
- compound: "CN[C@H]1CCN(c2c(F)cc3c(=O)c(C(=O)C[N+](=O)[O-])cn(C4CC4)c3c2Cl)C1 [Example 62, hydrochloride]"
  endpointValue: "< 2 ng/mL"
- compound: "CCOC(=O)CC(=O)c1cn(C2CC2)c2c(Cl)c(N3CC[C@@H](N)C3)c(F)cc2c1=O [Example 26, hydrochloride]"
  endpointValue: "< 2 ng/mL"

Now for the compound whose MIC we want.
Asked: Specify reported MIC for the compound shown: CCOC(=O)C(C(=O)OCC)C(=O)c1cn(C2CC2)c2c(F)c(N3CCC(N)C3)c(F)cc2c1=O (stereo not drawn) [Example 20, hydrochloride]
Given back: < 2 ng/mL

---

Quick reference for MIC among some molecules
test system: Klebsiella oxytoca 1082E; experiment: In Vitro Anti-Bacterial Activity Test (MIC, agar dilution); type: cell-based; details: Klebsiella oxytoca 1082E; Muller-Hinton agar, 37° C., 18 hours; read-out: MIC
Counter-ions that a name gives are not always drawn.
The figure you give is taken to be in µg/mL; do not add the unit.

Observe how each entry below is paired with its result.
- molecule: "CNCC1=CCN(c2c(F)cc3c(=O)c(C(=O)CS(C)(=O)=O)cn(C4CC4)c3c2Cl)C1 [Example 46, hydrochloride]"
  measuredOn: "Klebsiella oxytoca 1082E"
  MIC [µg/mL]: 0.013
- molecule: "CCOC(=O)C(C(=O)OCC)C(=O)c1cn(C2CC2)c2c(OC)c(N3CCC(NC)C3)c(F)cc2c1=O (stereo not shown) [Example 60, hydrochloride]"
  measuredOn: "Klebsiella oxytoca 1082E"
  MIC [µg/mL]: 0.013
- molecule: "CC(=O)CC(=O)c1cn(C2CC2)c2c(Cl)c(N3CCC(N)C3)c(F)cc2c1=O (stereo not shown) [Example 37, hydrochloride]"
  measuredOn: "Klebsiella oxytoca 1082E"
  MIC [µg/mL]: 0.195

Now for the molecule whose MIC we want.
Asked: Specify reported MIC for the molecule shown: CNCC1=CCN(c2c(F)cc3c(=O)c(C(=O)CC#N)cn(C4CC4)c3c2Cl)C1 [Example 43, hydrochloride]
Given back: 0.098

---

tested on: Escherichia coli 1507E; assay: In Vitro Anti-Bacterial Activity Test (MIC, agar dilution); format: cell-based; conditions: Escherichia coli, 1507E, 18 h, Muller-Hinton agar, 37° C.
Where a name gives a salt, the structure may show the parent alone.
measurementName: MIC (µg/mL)
The figure you give is taken to be in µg/mL; do not add the unit.

- molecule: "N#CCC(=O)c1cn(C2CC2)c2c(Cl)c(N3CC4=C(CNC4)C3)c(F)cc2c1=O [Example 44, hydrochloride]"
  measurementName: "MIC"
  uom: "µg/mL"
  endpointValue: 0.781
- molecule: "CCOC(=O)C(C#N)C(=O)c1cn(C2CC2)c2c(Cl)c(N3CC4=C(CNC4)C3)c(F)cc2c1=O (stereo not drawn) [Example 41, hydrochloride]"
  measurementName: "MIC"
  uom: "µg/mL"
  endpointValue: 0.391

Asked: Supply MIC measured with Escherichia coli 1507E for CCOC(=O)C(C(=O)OCC)C(=O)c1cn(C2CC2)c2c(Cl)c(N3CC[C@H](NC)C3)c(F)cc2c1=O [Example 56, hydrochloride] .
Given back: 0.013

Asked: Supply MIC measured with Escherichia coli 1507E for CN[C@H]1CCN(c2c(F)cc3c(=O)c(C(=O)C[N+](=O)[O-])cn(C4CC4)c3c2Cl)C1 [Example 62, hydrochloride] .
Given back: 0.007

Asked: Supply MIC measured with Escherichia coli 1507E for CC1CN(c2cc3c(cc2F)c(=O)c(C(=O)C[N+](=O)[O-])cn3-c2ccc(F)cc2F)CCN1 (stereo not drawn) [Example 10, hydrochloride] .
Given back: 0.098

Asked: Supply MIC measured with Escherichia coli 1507E for CCOC(=O)CC(=O)c1cn(C2CC2)c2c(Cl)c(N3CC[C@H](N)C3)c(F)cc2c1=O [Example 27, hydrochloride] .
Given back: 0.013

Asked: Supply MIC measured with Escherichia coli 1507E for CNCC1=CCN(c2c(F)cc3c(=O)c(C(=O)C[N+](=O)[O-])cn(C4CC4)c3c2F)C1 [Example 15, hydrochloride] .
Given back: 0.007

Asked: Supply MIC measured with Escherichia coli 1507E for CNCC1=CCN(c2c(F)cc3c(=O)c(C(=O)CS(C)(=O)=O)cn(C4CC4)c3c2Cl)C1 [Example 46, hydrochloride] .
Given back: 0.098

Asked: Supply MIC measured with Escherichia coli 1507E for CCOC(=O)C(C(=O)OCC)C(=O)c1cn(C2CC2)c2c(Cl)c(N3CC4=C(CNC4)C3)c(F)cc2c1=O [Example 36, hydrochloride] .
Given back: 0.025

Asked: Supply MIC measured with Escherichia coli 1507E for NC1CCN(c2c(F)cc3c(=O)c(C(=O)CC(=O)C(F)(F)F)cn(C4CC4)c3c2Cl)C1 (stereo not drawn) [Example 38, hydrochloride] .
Given back: 0.098

Asked: Supply MIC measured with Escherichia coli 1507E for CCOC(=O)CC(=O)c1cn(C2CC2)c2cc(N3CCNCC3)c(F)cc2c1=O [Example 19, hydrochloride] .
Given back: 0.013

Asked: Supply MIC measured with Escherichia coli 1507E for CCOC(=O)C(C(=O)OCC)C(=O)c1cn(C2CC2)c2c(OC)c(N3CC[C@H](NC)C3)c(F)cc2c1=O [Example 59, hydrochloride] .
Given back: 0.391

Asked: Supply MIC measured with Escherichia coli 1507E for CCOC(=O)CC(=O)c1cn(C2CC2)c2c(F)c(N3CCC(N)C3)c(F)cc2c1=O (stereo not drawn) [Example 21, hydrochloride] .
Given back: 0.013

Asked: Supply MIC measured with Escherichia coli 1507E for CCOC(=O)C(C(=O)OCC)C(=O)c1cn(C2CC2)c2c(Cl)c(N3CCC(NC)C3)c(F)cc2c1=O (stereo not drawn) [Example 57, hydrochloride] .
Given back: 0.013

Asked: Supply MIC measured with Escherichia coli 1507E for CNC1CCN(c2c(F)cc3c(=O)c(C(=O)C[N+](=O)[O-])cn(C4CC4)c3c2OC)C1 (stereo not drawn) [Example 66, hydrochloride] .
Given back: 0.391

Asked: Supply MIC measured with Escherichia coli 1507E for COc1c(N2CCC(N)C2)c(F)cc2c(=O)c(C(=O)C[N+](=O)[O-])cn(C3CC3)c12 (stereo not drawn) [Example 49, hydrochloride] .
Given back: 0.098

Asked: Supply MIC measured with Escherichia coli 1507E for C[C@@H]1CN(c2c(F)c(N)c3c(=O)c(C(=O)C[N+](=O)[O-])cn(C4CC4)c3c2F)C[C@H](C)N1 [Example 14, hydrochloride] .
Given back: 0.013

Asked: Supply MIC measured with Escherichia coli 1507E for CC(=O)CC(=O)c1cn(C2CC2)c2c(Cl)c(N3CCC(N)C3)c(F)cc2c1=O (stereo not drawn) [Example 37, hydrochloride] .
Given back: 0.195
